assayed_target: mu opioid receptor (Homo sapiens), P35372
Sequence (P35372 whole entry): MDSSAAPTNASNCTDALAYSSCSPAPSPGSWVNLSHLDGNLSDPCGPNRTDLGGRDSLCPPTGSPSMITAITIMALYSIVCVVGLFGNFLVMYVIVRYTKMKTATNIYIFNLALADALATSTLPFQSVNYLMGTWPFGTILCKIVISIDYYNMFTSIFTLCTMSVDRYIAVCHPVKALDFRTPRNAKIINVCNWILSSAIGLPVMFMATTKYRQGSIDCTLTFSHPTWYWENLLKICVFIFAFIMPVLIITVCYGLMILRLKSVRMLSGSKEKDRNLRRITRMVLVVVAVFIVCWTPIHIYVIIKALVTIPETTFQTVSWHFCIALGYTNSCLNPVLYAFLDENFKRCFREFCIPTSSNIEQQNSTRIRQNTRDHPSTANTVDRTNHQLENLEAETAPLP
test_summary: competition
conditions_used: modification not given
metric_name: Ki
# include the unit after the value

Reported Ki for YAGFL [DADLE] : what is it?
1.58 nM
